Recorded measurements of IC50, one per entry
- Assayed target: BDNF/NT-3 growth factors receptor (Homo sapiens, UniProt Q16620)
- Sequence (Q16620 whole entry): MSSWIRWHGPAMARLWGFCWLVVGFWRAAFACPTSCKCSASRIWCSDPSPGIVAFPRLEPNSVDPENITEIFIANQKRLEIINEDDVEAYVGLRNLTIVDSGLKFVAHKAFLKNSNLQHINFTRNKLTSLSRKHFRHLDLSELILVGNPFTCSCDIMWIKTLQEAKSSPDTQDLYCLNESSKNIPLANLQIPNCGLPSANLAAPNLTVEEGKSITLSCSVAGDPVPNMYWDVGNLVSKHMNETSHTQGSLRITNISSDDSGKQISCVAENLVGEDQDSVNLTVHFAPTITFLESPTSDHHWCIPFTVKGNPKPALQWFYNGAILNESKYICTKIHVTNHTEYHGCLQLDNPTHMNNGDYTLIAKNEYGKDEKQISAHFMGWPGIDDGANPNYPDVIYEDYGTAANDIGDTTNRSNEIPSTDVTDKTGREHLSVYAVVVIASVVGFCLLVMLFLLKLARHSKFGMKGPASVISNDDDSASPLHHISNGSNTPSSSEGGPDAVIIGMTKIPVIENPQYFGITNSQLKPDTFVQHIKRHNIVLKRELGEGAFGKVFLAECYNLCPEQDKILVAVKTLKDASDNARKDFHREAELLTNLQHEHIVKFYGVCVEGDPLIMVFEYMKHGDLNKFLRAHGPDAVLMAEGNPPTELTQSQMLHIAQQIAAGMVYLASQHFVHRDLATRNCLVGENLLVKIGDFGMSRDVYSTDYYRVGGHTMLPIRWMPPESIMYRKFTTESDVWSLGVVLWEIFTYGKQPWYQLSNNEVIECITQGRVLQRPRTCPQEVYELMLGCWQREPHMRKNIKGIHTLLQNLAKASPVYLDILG
- Method notes: Inhibition of TrkB (unknown origin) using Tyr1 peptide as substrate in presence of ATP measured after 2 hrs by FRET-based Z-Lyte kinase assay
Metric: IC50

>>> observed_result("C(=C\\c1n[nH]c2ccc(NCc3ccccc3)cc12)/c1ccccn1")
"1.1 nM"
>>> observed_result("O=C(Nc1ccc2[nH]nc(/C=C/c3ccccn3)c2c1)c1cc(F)cc(F)c1")
"244 nM"
>>> observed_result("Fc1cc(F)cc(Sc2ccc3[nH]nc(/C=C/c4ccccn4)c3c2)c1")
"4.8 nM"
>>> observed_result("N#Cc1cc(F)cc(CNc2ccc3[nH]nc(/C=C/c4ccccn4)c3c2)c1")
"17.7 nM"
>>> observed_result("Fc1cc(Cl)cc(CNc2ccc3[nH]nc(/C=C/c4ccccn4)c3c2)c1")
"15.4 nM"
>>> observed_result("Fc1cc(F)cc(Oc2ccc3[nH]nc(/C=C/c4ccccn4)c3c2)c1")
"4 nM"
>>> observed_result("Fc1cc(CNc2ccc3[nH]nc(/C=C/c4ccccn4)c3c2)cc(C(F)(F)F)c1")
"245 nM"
>>> observed_result("Fc1cc(F)cc(Cc2ccc3[nH]nc(/C=C/c4ccccn4)c3c2)c1")
"1.3 nM"
>>> observed_result("CN(Cc1cc(F)cc(F)c1)c1ccc2[nH]nc(/C=C/c3ccccn3)c2c1")
"8 nM"

###

- Test system: BaF3
- Method notes: Antiproliferative activity against mouse BaF3 cells transfected with wild type ETV6-NTRK3 (unknown origin) harbouring G623R mutation assessed as cell viability measured after 72 hrs by Micro plate reader method
- Type: functional, cell-based
- Run conditions: BaF3, 72 h
pIC50: −log10 of the molar value.
Metric: pIC50

>>> observed_result("O=C(Nc1cnn2ccc(N3CCC[C@@H]3c3cc(F)ccc3F)nc12)N1CC[C@H](O)C1 [LAROTRECTINIB]")
5.92
>>> observed_result("C[C@@H](Nc1ccc2[nH]nc(/C=C/c3ccccn3)c2c1)c1cc(F)cc(F)c1")
6.61

###

- Assayed target: Tyrosine-protein kinase JAK3 (Homo sapiens)
- Sequence (P52333 whole entry): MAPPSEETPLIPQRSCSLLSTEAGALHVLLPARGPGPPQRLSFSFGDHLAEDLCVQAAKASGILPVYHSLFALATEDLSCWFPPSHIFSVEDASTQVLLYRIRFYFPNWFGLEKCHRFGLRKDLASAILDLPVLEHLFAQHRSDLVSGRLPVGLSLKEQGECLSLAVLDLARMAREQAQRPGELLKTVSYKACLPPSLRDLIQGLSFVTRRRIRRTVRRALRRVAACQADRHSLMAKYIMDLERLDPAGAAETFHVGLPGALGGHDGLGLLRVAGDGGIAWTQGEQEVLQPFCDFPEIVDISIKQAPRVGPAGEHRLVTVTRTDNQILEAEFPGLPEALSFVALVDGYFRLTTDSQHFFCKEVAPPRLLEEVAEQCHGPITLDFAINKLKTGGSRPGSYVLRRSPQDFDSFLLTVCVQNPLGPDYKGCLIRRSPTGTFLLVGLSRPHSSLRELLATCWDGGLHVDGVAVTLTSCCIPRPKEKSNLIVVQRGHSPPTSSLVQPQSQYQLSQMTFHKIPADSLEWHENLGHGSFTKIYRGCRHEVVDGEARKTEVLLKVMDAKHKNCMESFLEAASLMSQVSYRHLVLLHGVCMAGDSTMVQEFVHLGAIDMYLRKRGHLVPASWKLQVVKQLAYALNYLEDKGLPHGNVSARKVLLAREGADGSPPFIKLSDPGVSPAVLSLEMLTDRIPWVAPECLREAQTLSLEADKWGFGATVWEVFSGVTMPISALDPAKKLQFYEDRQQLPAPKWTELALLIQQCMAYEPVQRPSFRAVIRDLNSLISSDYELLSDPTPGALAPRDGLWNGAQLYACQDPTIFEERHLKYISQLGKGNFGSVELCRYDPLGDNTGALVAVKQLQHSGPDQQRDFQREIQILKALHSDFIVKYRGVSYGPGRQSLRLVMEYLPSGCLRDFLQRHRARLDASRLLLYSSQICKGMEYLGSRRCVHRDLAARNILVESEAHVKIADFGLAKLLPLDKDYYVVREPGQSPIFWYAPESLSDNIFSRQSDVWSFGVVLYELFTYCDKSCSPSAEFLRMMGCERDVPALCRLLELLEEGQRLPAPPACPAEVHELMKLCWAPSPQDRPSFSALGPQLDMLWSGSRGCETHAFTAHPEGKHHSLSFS
- Method notes: Binding affinity to wild-type human partial length JAK3 JH1 catalytic domain (I781 to S1124 residues) expressed in mammalian expression system by Kinomescan method relative to control
pKd: −log10 of the molar value.
Metric: pKd

>>> observed_result("C[C@@H](Nc1ccc2[nH]nc(/C=C/c3ccccn3)c2c1)c1cc(F)cc(F)c1")
6.77

###

- Method notes: Half life in Sprague-Dawley rat at 2 mg/kg, iv measured after 24 hrs by LC-MS/MS analysis
- Type: ADME, organism-based
- Run conditions: in vivo
Metric: half-life (h)

>>> observed_result("C[C@@H](Nc1ccc2[nH]nc(/C=C/c3ccccn3)c2c1)c1cc(F)cc(F)c1")
1.39
